Property: phenotypically active; scope: individual compounds
test system: WPMY1-GM130-SQSTM1; experiment: phenotypically active (imaging signature differs from DMSO and reproducible) at any of 0.3-9 uM (binary (1 = active, 0 = inactive)); higher = active; conditions: treatment time: 24 h
Structures can show the parent of a compound that is named as a salt.
Reply: number alone, nothing else.

Look over these answered cases.
| compound | measured.on | quantity.kind | numeric.readout |
| --- | --- | --- | --- |
| O=C1NC(=O)C(c2ccccc2)(c2ccccc2)N1 | WPMY1-GM130-SQSTM1 | phenotypically active | 0 |
| COC(=O)c1c(-c2cc(OC)c(OC)c(OC)c2)c2ccnc(OCc3ncccn3)c2c(=O)n1Cc1ccnc(C)c1 [T 0156 hydrochloride] | WPMY1-GM130-SQSTM1 | phenotypically active | 0 |
| C[n+]1cccc(C(=O)O)c1 [Trigonelline hydrochloride] | WPMY1-GM130-SQSTM1 | phenotypically active | 0 |

Using WPMY1-GM130-SQSTM1 as the test system, report measured phenotypically active of "CC[N+](C)(C)c1cccc(O)c1" . 0

Using WPMY1-GM130-SQSTM1 as the test system, report measured phenotypically active of COc1cc(C)c(Sc2cnc(NC(=O)c3ccc(CNC(C)C(C)(C)C)cc3)s2)cc1C(=O)N1CCN(C(C)=O)CC1 (configuration not stated) . 1

Using WPMY1-GM130-SQSTM1 as the test system, report measured phenotypically active of "CCN1C(C)(C)CC(Oc2ccc(C(=O)Nc3ccc(NC(=O)Nc4cc(C(C)(C)C)on4)cc3)nc2)CC1(C)C" . 0

Using WPMY1-GM130-SQSTM1 as the test system, report measured phenotypically active of "CCCCCOC(=O)Nc1nc(=O)n([C@@H]2O[C@H](C)[C@@H](O)[C@H]2O)cc1F" . 0

Using WPMY1-GM130-SQSTM1 as the test system, report measured phenotypically active of "CCN(CCO)CCCOc1ccc2c(Nc3cc(CC(=O)Nc4cccc(F)c4)n[nH]3)ncnc2c1" . 1

Using WPMY1-GM130-SQSTM1 as the test system, report measured phenotypically active of CC(C)NCCCC1(C(N)=O)c2ccccc2-c2ccccc21 [indecainide] . 0

Using WPMY1-GM130-SQSTM1 as the test system, report measured phenotypically active of Cc1ccc(NC(=O)c2ccc(CN3CCN(C)CC3)cc2)cc1Nc1nccc(-c2cccnc2)n1 [Imatinib mesylate] . 1

Using WPMY1-GM130-SQSTM1 as the test system, report measured phenotypically active of CCOc1ccc2nc(S(N)(=O)=O)sc2c1 [ethoxzolamide] . 0

Using WPMY1-GM130-SQSTM1 as the test system, report measured phenotypically active of CCN(Cc1ccncc1)C(=O)C(CO)c1ccccc1 (configuration not stated) [tropicamide] . 0

Using WPMY1-GM130-SQSTM1 as the test system, report measured phenotypically active of "CC1(C)CCC(C)(C)c2cc(C3(c4ccc(C(=O)O)cc4)OCCO3)ccc21" . 0

Using WPMY1-GM130-SQSTM1 as the test system, report measured phenotypically active of "Cc1nc(Nc2ncc(C(=O)Nc3c(C)cccc3Cl)s2)cc(N2CCN(CCO)CC2)n1" . 1

Using WPMY1-GM130-SQSTM1 as the test system, report measured phenotypically active of CC1=Nc2ccc(Cl)cc2S(=O)(=O)N1 [diazoxide] . 0

Using WPMY1-GM130-SQSTM1 as the test system, report measured phenotypically active of "Nc1ncnc2c1c(COc1cccc(Cl)c1)nn2C1CCOCC1" . 0

Using WPMY1-GM130-SQSTM1 as the test system, report measured phenotypically active of "COc1ccc2cc(CCC(C)=O)ccc2c1" . 0

Using WPMY1-GM130-SQSTM1 as the test system, report measured phenotypically active of "CC(=C/[C@@H](C)C(=O)c1ccc(N(C)C)cc1)/C=C/C(=O)NO" . 1

Using WPMY1-GM130-SQSTM1 as the test system, report measured phenotypically active of "CN1c2ccc([N+](=O)[O-])cc2N=C(c2ccc(C(=O)O)cc2)c2cc3c(cc21)C(C)(C)CCC3(C)C" . 0

Using WPMY1-GM130-SQSTM1 as the test system, report measured phenotypically active of "O=C(CCCCCCC(=O)NO)NO" . 0

Using WPMY1-GM130-SQSTM1 as the test system, report measured phenotypically active of "CC(=O)NCC(=O)N1[C@@H]2CC[C@H]1c1ccc(Nc3ncc(C(F)(F)F)c(NC4CCC4)n3)cc12" . 1

Using WPMY1-GM130-SQSTM1 as the test system, report measured phenotypically active of "CC(C)(C)NC[C@H](O)c1ccc(O)c(CO)c1" . 0

Using WPMY1-GM130-SQSTM1 as the test system, report measured phenotypically active of COc1ccc2c(c1OC)C(=O)O[C@@H]2[C@H]1c2c(cc3c(c2OC)OCO3)CCN1C [Noscapine hydrochloride] . 0

Using WPMY1-GM130-SQSTM1 as the test system, report measured phenotypically active of "C[C@H]1O[C@H](O[C@H]2[C@H](O)[C@@H](O)[C@@H](O[C@H]3[C@H](O)[C@@H](O)[C@H](O)O[C@@H]3CO)O[C@@H]2CO)[C@H](O)[C@@H](O)[C@@H]1N[C@H]1C=C(CO)[C@@H](O)[C@H](O)[C@H]1O" . 0

These measurements were taken from the supplement of paper PMC7411054.
